# TEST PROTOCOL: CHI Log D procedure
# Assay type: physicochemical
# RUN PARAMETERS: pH 7.4, CHI Log D
Recorded measurements of chromatographic logD, one per entry
Answer with a bare number; do not write a unit.

MOLECULE	chromatographic logD
CC[C@H](C)[C@@H]1NC(=O)[C@H](CC(=O)O)NC(=O)[C@]2(CC=CCCCC3(CCCC=CCCCCCC[C@@](C)(C(=O)N[C@@H](Cc4ccccc4)C(=O)N[C@@H](Cc4csc5ccccc45)C(=O)N[C@@H](CCC(N)=O)C(N)=O)NC(=O)[C@H](CCC(N)=O)NC(=O)[C@H](c4ccccc4)NC(=O)[C@H](C)NC(=O)[C@H](C)NC(=O)[C@H](CCC(=O)O)NC(=O)[C@H](CC(=O)O)NC3=O)NC1=O)CCCN2C(C)=O (some centres unmarked) [I-726]	2.34

The record that follows has no chromatographic logD shown yet.
Answer with the recorded chromatographic logD of CC(=O)N1CCC[C@]12CC=CCCCC1(CCCC=CCCCCCC[C@@](C)(C(=O)N[C@@H](Cc3ccccc3)C(=O)N[C@@H](Cc3csc4ccccc34)C(=O)N[C@@H](CCC(N)=O)C(=O)NC(C)(C)C(N)=O)NC(=O)[C@H](CC(N)=O)NC(=O)[C@H](Cc3ccccc3)NC(=O)[C@H](C)NC(=O)[C@H](C)NC(=O)[C@H](CCC(=O)O)NC(=O)[C@H](CC(=O)O)NC1=O)NC(=O)[C@H](CC(C)C)NC(=O)[C@H](CC(=O)O)NC2=O (some centres unmarked) [I-737] only.
2.73
